tested on: CD2F1 mice, L1210 leukemia ip, survival T/C; experiment: NCI In Vivo Anticancer Drug Screen. Data for tumor model L1210 Leukemia (intraperitoneal) in CD2F1 (CDF1) mice; details: endpoint: mean survival time; dose: 200.0 mg/kg/injection; schedule: Q04DX003 (ip); vehicle: other; higher = longer survival
Inconclusive results and toxic doses are left out.
Readings of T/C for the listed compounds
result type: T/C

compound=O=C1CSCC(=O)N1 result_type=T/C measured_value="111 % of control"
compound=CC(=O)N(C)N=Nc1ccc(C)cc1 result_type=T/C measured_value="121 % of control"
compound=CCN1C(=O)CSC1=S result_type=T/C measured_value="93 % of control"
compound="CCCC(CC(=O)O)(C(=O)O)c1ccccc1 (centres undefined)" result_type=T/C measured_value="97 % of control"

###

test system: CD2F1 mice, L1210 leukemia ip, survival T/C; assay: NCI In Vivo Anticancer Drug Screen. Data for tumor model L1210 Leukemia (intraperitoneal) in CD2F1 (CDF1) mice; conditions: endpoint: mean survival time; dose: 200.0 mg/kg/injection; schedule: Q01DX009 (ip); vehicle: Klucel (hydroxypropylcellulose) (HPC); higher = longer survival
Toxic doses and inconclusive results are not listed.
Measured T/C by item
result type: T/C

compound="CSCCC(NC(=O)COc1ccc(Cl)cc1Cl)C(=O)O (configuration not stated)" result_type=T/C measured_value="91 % of control"
compound="CC(=O)OC1CCC2(C)C(=CC=C3C2CCC2(C)C3CCC2C(C)/C=C/C(C)C(C)C)C1 (configuration not stated)" result_type=T/C measured_value="93 % of control"
compound=O=C(N/N=C/c1ccccc1)c1ccc(Cl)cc1Cl result_type=T/C measured_value="94 % of control"
compound="OCC(O)C(O)C(O)C(O)C(O)CO (configuration not stated)" result_type=T/C measured_value="98 % of control"
compound="CSCSCC(N)CO (configuration not stated)" result_type=T/C measured_value="96 % of control"
compound="Cn1c(CC(O)c2nc3ccccc3n2C)nc2ccccc21 (configuration not stated)" result_type=T/C measured_value="120 % of control"
compound=O=C(Nc1ccccc1C(F)(F)F)OCCOc1ccc(Br)cc1 result_type=T/C measured_value="103 % of control"
compound=O=C(N/N=C/c1ccccc1)c1ccc(Cl)cc1 result_type=T/C measured_value="97 % of control"
compound=COc1ccc(C(=O)CC(=O)Nc2ccc([N+](=O)[O-])cc2)cc1 result_type=T/C measured_value="97 % of control"
compound="CCCN1OC2CC/C=C\\CCC2C1c1ccccc1 (configuration not stated)" result_type=T/C measured_value="100 % of control"
compound="COc1cccc(C(O)c2ccncc2C)c1OC (configuration not stated)" result_type=T/C measured_value="98 % of control"
compound="CCC(C)(O)C(C)=O (configuration not stated)" result_type=T/C measured_value="105 % of control"

###

Tested on: CD2F1 mice, L1210 leukemia ip, survival T/C
Assay: NCI In Vivo Anticancer Drug Screen. Data for tumor model L1210 Leukemia (intraperitoneal) in CD2F1 (CDF1) mice
Details: endpoint: mean survival time; dose: 75.0 mg/kg/injection; schedule: Q01DX001 (ip); vehicle: saline; higher = longer survival
Procedure: The antitumor activity of compounds was measured in mice bearing transplantable tumors. Survival or tumor size were measured and the results are expressed as the measurement made in the treated group (T) divided by the measurement made in the vehicle treated control group (C). The tumor model used in this assay is L1210 Leukemia (intraperitoneal) in CD2F1 (CDF1) mice
Inconclusive results and toxic doses are left out. Non-standard residues stand in square brackets, D forms with d. Residues, ends and D or L forms follow the SMILES beside them. ξ: configuration not given here. *: point of attachment. ONp = O=[N+]([O-])c1ccc(O*)cc1; ξS = NC(CO)C(=O)O
Entries annotated with measured T/C
result type: T/C

compound=CC(=O)Oc1ccc2ncccc2c1Cc1c(OC(C)=O)ccc2ncccc12 result_type=T/C measured_value="90 % of control"
compound=C=CCN(CC=C)C1=CC(=O)C(=O)c2ccccc21 result_type=T/C measured_value="91 % of control"
compound=CCCCC/C(C)=C(/C#N)C(=O)OCC result_type=T/C measured_value="97 % of control"
compound=C=CCC(c1ccccc1)(c1ccccc1)c1ccccc1 result_type=T/C measured_value="93 % of control"
compound=COc1ccc(/C=N/O)cc1 result_type=T/C measured_value="102 % of control"
compound=O=C1C=C(N2CCOCC2)c2ccccc2C1=O result_type=T/C measured_value="100 % of control"
compound="C#CCOCC1CO1 (centres undefined)" result_type=T/C measured_value="95 % of control"
compound=CCOC1(OCC)C2C=CC1C(C#N)(C#N)C2(C#N)C#N result_type=T/C measured_value="103 % of control"
compound="OCC1OC(Oc2ccccc2)C(O)C1O (centres undefined)" result_type=T/C measured_value="93 % of control"
compound="NC(CO)C(=O)NCC(=O)Oc1ccc([N+](=O)[O-])cc1 (centres undefined) (H-[ξS]-Gly-ONp)" result_type=T/C measured_value="100 % of control"
compound=CCCCCC/C=N\N=C(N)N result_type=T/C measured_value="103 % of control"
compound=[B-][N+]12CN3CN(CN(C3)C1)C2 result_type=T/C measured_value="101 % of control"
compound=C=CCC(C(=O)OC)(C(=O)OC)c1ccc(OC)c(OC)c1 result_type=T/C measured_value="100 % of control"
compound=CC(=O)Nc1nc(C)c(S(=O)(=O)O)s1 result_type=T/C measured_value="101 % of control"
